- TEST METHOD NOTES: Half life in rats
- Type: ADME, organism-based
- CONDITION PARAMETERS: rat, in vivo
READOUT LABEL: half-life (min)
Answers are plain numbers, in min.

### Prompt Assign half-life to the following record: `CN1CCN=C1c1ccc(C(=O)N2CCN(S(=O)(=O)c3cc4cc(Cl)ccc4[nH]3)CC2)cc1`
### Response 468
